- target.entity: Pro-neuregulin-1, membrane-bound isoform (Homo sapiens) (UniProt Q02297)
- Sequence (Q02297 whole entry, looked up, canonical isoform): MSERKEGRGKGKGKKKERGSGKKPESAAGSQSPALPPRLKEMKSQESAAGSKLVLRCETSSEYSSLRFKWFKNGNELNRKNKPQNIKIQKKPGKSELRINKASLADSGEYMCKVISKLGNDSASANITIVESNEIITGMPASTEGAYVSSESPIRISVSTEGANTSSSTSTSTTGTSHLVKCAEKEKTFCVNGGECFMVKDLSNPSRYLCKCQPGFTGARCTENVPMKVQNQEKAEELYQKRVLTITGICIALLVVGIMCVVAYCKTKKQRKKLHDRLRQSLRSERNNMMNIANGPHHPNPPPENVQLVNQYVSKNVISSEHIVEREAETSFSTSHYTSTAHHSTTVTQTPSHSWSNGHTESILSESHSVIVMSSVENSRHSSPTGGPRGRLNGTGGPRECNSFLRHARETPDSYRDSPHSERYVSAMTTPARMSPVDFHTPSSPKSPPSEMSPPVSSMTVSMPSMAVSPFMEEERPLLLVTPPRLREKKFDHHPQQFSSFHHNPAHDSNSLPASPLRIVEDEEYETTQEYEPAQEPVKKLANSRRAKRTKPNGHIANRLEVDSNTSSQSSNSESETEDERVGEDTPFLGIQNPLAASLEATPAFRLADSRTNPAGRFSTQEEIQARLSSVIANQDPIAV
- experiment.description: small molecules binding neuregulin-1 protein – biochemical, small-molecule microarray, fluorescence 635/667, psychiatric disease protein project, primary screen (AID 1075);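 note: score combines 667 nm spot fluorescence with signal to noise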
- conditions.used: NRG1 binding, 635 nm fluorescence, higher = more signal
For each record, write down the corresponding composite z-score.
Reply: number alone, nothing else.

Qu. Returns the measured composite z-score for the input compound. Input: O=C(NCc1ccccc1)[C@]1(Cc2ccccc2)N=C(c2ccc(OCCCO)cc2)O[C@@H]1c1ccccc1
Ans. 1.31

Qu. Another compound to look at: NC(=O)[C@H]1[C@@H]2C(=O)O[C@@H](c3ccccc3)[C@@H](c3ccccc3)N2[C@@H](c2ccc(O)cc2)[C@]12C(=O)Nc1ccc(C#CC3(O)CCCCCC3)cc12
Ans. 1.5

Qu. Another compound to look at: COc1ccccc1CN1C(=O)c2ccccc2[C@](Cc2ccccc2I)(C(=O)NCCN2CCOCC2)[C@@H]1c1ccc(CO)cc1
Ans. 1.39

Qu. Another compound to look at: CCCc1cc2c(n1Cc1ccc(OC)cc1)C(C)C1CN(C(=O)c3ccccc3)C(C)(C(=O)OC)C21 (configuration not stated)
Ans. 1.81

Qu. Another compound to look at: CCOC(=O)C[C@H]1[C@H](OC(=O)c2cc3ccccc3oc2=O)[C@@H](NC(=O)c2ccc3ccccc3n2)c2cc(OCCCO)ccc2N1C(=O)c1ccc2ccccc2n1
Ans. -0.0114

Qu. Another compound to look at: COCCCNC(=O)[C@]1(Cc2ccccc2CN=[N+]=[N-])N=C(c2ccc(OCCCO)cc2)O[C@@H]1c1ccccc1CN=[N+]=[N-]
Ans. 1.84

Qu. Another compound to look at: CC[C@@H]1[C@@H]2C3C(=O)N(CC)C(=O)C3CC(=O)[C@@H]2[C@H](c2ccc(C)cc2)N1S(=O)(=O)c1ccc(C)cc1 (some centres not stated)
Ans. 1.37

---

- experiment.description: growth effects on S. cerevisiae YJM789 – YJM789 clinical isolate, OD600, 24 h, basal, primary screen (AID 1089);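 note: growth of clinical yeast isolate S. cerevisiae YJM 789 seeded 1000 cells per well; test concentration not given here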
- conditions.used: higher = more signal, called active from +8 up or from −8 down
observable: z-score
Reply: number alone, nothing else.

Qu. Returns the measured z-score for the input compound. Input: C[N+](C)(C)CCCC[C@@H]1NC(=O)[C@@H]2C[C@H](C(=O)NCCCCCNC(=O)CS)[C@H](c3cccc(OCCO)c3)N2C1=O
Ans. 0.539

Qu. Another compound to look at: CC(C)C(CO)N1C(=O)[C@@H]2[C@H]3C(=O)OCC=C[C@H]3OC23C=CCN(Cn2nnc4ccccc42)C(=O)[C@@H]13 (some centres undefined)
Ans. 1.14

Qu. Another compound to look at: Cc1ccccc1C(O)C1C=CC2C(=O)N(Cc3ccccc3)C(=O)C2N1n1cnnc1 (centres undefined)
Ans. -1.26

Qu. Another compound to look at: C=C(/C(=C/C[C@@H](OC(=O)c1ccncc1)c1cccc(OCCO)c1)c1cc(C(=O)OC)ccc1OC)C(C)C
Ans. -0.117

---

- target.entity: E3 ubiquitin-protein ligase XIAP (Homo sapiens)
- experiment.description: small molecules binding XIAP protein – biophysical, small-molecule microarray, fluorescence 635 nm, primary screen (AID 1181);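 note: score merges 667 nm emission and signal to noise over triplicate slides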
- conditions.used: higher = more signal
observable: composite z-score
Reply: number alone, nothing else.

Qu. Returns the measured composite z-score for the input compound. Input: Cc1ccc(S[C@]2(C(=O)NCCN3CCOCC3)CC(=O)N(C3Cc4ccccc4C3)[C@@H]2c2ccc(CO)cc2)cc1
Ans. -0.0282

Qu. Another compound to look at: CCCCC=C[C@@H](NC(=O)CCc1ccccc1)c1ccccc1
Ans. -0.154

Qu. Another compound to look at: C=C(C(=O)CC[C@H](OC(=O)c1cccnc1)c1ccc(OCCO)cc1)C(C)C
Ans. 0.158

Qu. Another compound to look at: Cc1ccc(C(C)CC(O)C2C=CC3C(=O)N(Cc4ccccc4)C(=O)C3N2n2cnnc2)o1 (stereo not given)
Ans. 0.263

Qu. Another compound to look at: NC(=O)[C@H]1[C@@H]2C(=O)O[C@@H](c3ccccc3)[C@@H](c3ccccc3)N2[C@@H](c2ccc(O)cc2)[C@]12C(=O)Nc1ccc(C#CC3(O)CCCCCC3)cc12
Ans. -0.102

Qu. Another compound to look at: COCCCNC(=O)[C@@H]1c2ccccc2C(=O)N(c2ccc(C)cn2)[C@H]1c1ccc(CO)cc1
Ans. -0.195

Qu. Another compound to look at: COC(=O)c1c(CC[C@@H](CO)NC(=O)N[C@@H](C)Cn2cc(C3(O)CCCC3)nn2)oc(C(C)=O)c1C(=O)OC
Ans. -0.184

Qu. Another compound to look at: O=C1O[C@@H](c2ccccc2)[C@@H](c2ccccc2)N2[C@@H](c3ccc(O)cc3)[C@]3(C(=O)Nc4ccc(C#CC5(O)CCCCCC5)cc43)[C@@H](C(=O)N3CCN(c4ncccn4)CC3)[C@H]12
Ans. -0.127

Qu. Another compound to look at: [N-]=[N+]=NCc1ccccc1C[C@]1(C(=O)NCCN2CCOCC2)COC(c2ccc(OCCCO)cc2)=N1
Ans. -0.0125

Qu. Another compound to look at: NC(=O)NCC#Cc1ccc2c(c1)[C@]1(C(=O)N2)[C@H](c2ccc(O)cc2)N2[C@H](c3ccccc3)[C@H](c3ccccc3)OC(=O)[C@H]2[C@@H]1C(=O)NC[C@H](O)c1ccccc1
Ans. 0.045

Qu. Another compound to look at: O=C1C2C=CC(C(O)c3cccc4ccccc34)N(Nc3ccccc3)C2C(=O)N1c1ccccc1 (stereo not given)
Ans. 0.197

Qu. Another compound to look at: CC1CC/C=C\[C@H]2OC34C=CCN(c5ccc(Cl)cc5)C(=O)[C@H]3N(C(CO)C(C)C)C(=O)[C@]4(C)C2C(=O)O1 (stereo not given in full)
Ans. 0.0808

Qu. Another compound to look at: CC1C=C(CCCO)C=C(C(=O)OCCS(C)(=O)=O)C(C(=O)OCCS(C)(=O)=O)=CN1Cc1cccc(OC(F)(F)F)c1 (stereo not given)
Ans. -0.0659

Qu. Another compound to look at: C=CC[C@@]1(C(=O)NCCN2CCOCC2)N=C(c2ccc(OCCCO)cc2)O[C@@H]1c1ccccc1
Ans. -0.237

Qu. Another compound to look at: [N-]=[N+]=Nc1ccccc1C[C@]1(C(=O)NCCN2CCOCC2)N=C(c2ccc(OCCCO)cc2)O[C@H]1c1ccccc1N=[N+]=[N-]
Ans. 0.0402

---

- experiment.description: probe aNOTCH2 binding on compound microarray – biochemical, small-molecule microarray, 635/667 nm fluorescence, primary screen (AID 1121);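 note: score merges feature fluorescence read at 667 nm with its signal to noise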
- conditions.used: higher = more signal
observable: composite z-score
Reply: number alone, nothing else.

Qu. Returns the measured composite z-score for the input molecule. Input: O=C1c2ccccc2[C@](Cc2ccccc2I)(C(=O)NCC(F)(F)F)[C@H](c2ccc(CO)cc2)N1Cc1ccccc1
Ans. -0.112

Qu. Another molecule to look at: COCCCNC(=O)[C@@]1(Cc2ccccc2N=[N+]=[N-])N=C(c2ccc(OCCCO)cc2)O[C@H]1c1ccccc1CN=[N+]=[N-]
Ans. 0.034

Qu. Another molecule to look at: CC(C)c1ccc(NN2C(C(O)c3ccccn3)C=CC3C(=O)N(c4ccccc4)C(=O)C32)cc1 (centres undefined)
Ans. 0.142

Qu. Another molecule to look at: CC1(C)[C@@H]2CC(C(O)C3C=CC4C(=O)N(c5ccccc5)C(=O)C4N3Nc3ccccc3F)=C[C@@H]1C2 (some centres undefined)
Ans. -0.229

Qu. Another molecule to look at: CCC[C@@H]1C[C@@]1(CCC)[C@@H](NC(=O)c1ccco1)c1ccc(Cl)cc1
Ans. -0.0324

Qu. Another molecule to look at: COc1ccc([Si](C)(C)[C@@H]2[C@@H](CCO)O[C@]3(C(=O)N(Cc4ccccc4)c4ccc(N5CCCCC5=O)cc43)[C@H]2C)cc1
Ans. -0.108

Qu. Another molecule to look at: CN(C)C(=O)[C@]1(Cc2ccccc2N=[N+]=[N-])N=C(c2ccc(OCCCO)cc2)O[C@@H]1c1ccccc1CN=[N+]=[N-]
Ans. -0.0349

Qu. Another molecule to look at: COC(=O)[C@@]1(Cc2ccc(OC)cc2)[C@H]2c3cc(C(=O)N4CCCC4)n(Cc4ccc(C)o4)c3C[C@H]2CN1C(=O)c1ccccc1
Ans. 0.0489

Qu. Another molecule to look at: C[C@H]1NC(=O)C([C@@H](C)OCc2ccccc2)NC(=O)[C@@]23C(=O)N[C@@H](Cc4ccccc4)C2[C@H](C)[C@@]2(C)O[C@H]2C3/C=C/CC/C=C/CNC1=O (some centres undefined)
Ans. -0.0131

Qu. Another molecule to look at: O=C(O)[C@@]1(Cc2ccccc2)COC(c2ccc(OCCCO)cc2)=N1
Ans. -0.135

Qu. Another molecule to look at: O=C1O[C@H](c2ccccc2)[C@H](c2ccccc2)N2[C@H]1[C@@H](C(=O)N1CCN(c3ncccn3)CC1)[C@]1(C(=O)Nc3ccc(C#CCCO)cc31)[C@H]2c1ccc(OCCO)cc1
Ans. -0.0633

Qu. Another molecule to look at: CCOC(=O)C1=CC[C@@H](c2cccc(Br)c2)N(S(=O)(=O)c2ccc(C)cc2)[C@H]1c1ccc([N+](=O)[O-])cc1
Ans. -0.0856

Qu. Another molecule to look at: COC(=O)[C@@]1(Cc2ccccc2)[C@H]2c3cc(C(=O)N(C)C)n(Cc4ccc(O)c(OC)c4)c3C[C@H]2CN1C(=O)c1ccccc1
Ans. -0.246

Qu. Another molecule to look at: COc1ccc([Si](C)(C)[C@@H]2[C@@H](CC(=O)N(CCO)Cc3ccccc3)O[C@]3(C(=O)N(Cc4ccc(N5CCOC5=O)cc4)c4ccccc43)[C@H]2C)cc1
Ans. -0.175

Where do these numbers come from? They come from PubChem BioAssay.
